- test_system: UniProt Q9WTR4
- test: Norepinephrine reuptake ([^3H]norepinephrine uptake) inhibition in rat brain synaptosomes
- stated_conditions: rat brain synaptosomes; 10 nM [^3H]norepinephrine; maximal inhibition from dose-response fit
measured_endpoint: NE Uptake Emax (% I ± SD) (% I)

>>> endpoint_result("c1ccc(C(CNc2nc(-c3ccc4[nH]ccc4c3)nc3ccccc23)c2ccccc2)cc1 [compound 17]")
70
>>> endpoint_result("c1ccc(C(CNc2nc(-c3ccc4nccn4c3)nc3ccccc23)c2ccccc2)cc1 [compound 55]")
72
>>> endpoint_result("Cc1cc2nccn2cc1-c1nc(NCC(c2ccccc2)c2ccc[nH]2)c2ccccc2n1 (stereo not shown) [compound 140]")
70
>>> endpoint_result("c1ccc(C(CNc2nc(-c3cnc4nccn4c3)nc3ccccc23)C2CCCCC2)cc1 (stereo not shown) [compound 102]")
70
